- Assay Comment: mn = molality of the nth substance listed, in mol/kg
- Experimental Context: 298.15 K; 101 kPa; Liquid; Alternating current cell with electrodes; m1 = 0.01
Readout Name: electrical conductivity (S/m)

1. O=S(=O)([O-])[O-].[Na+].[Na+] [sodium sulfate] + O
2. [Cl-].[K+] [potassium chloride] + O
Problem: Two entries are listed, 1 and 2 . Which one carries the higher electrical conductivity? Answer = label.
Solution: 1

1. [Na+].[OH-] [sodium hydroxide] + O
2. [Cl-].[Na+] [sodium chloride] + O
Problem: Which of these two has the smaller recorded electrical conductivity: 1 or 2 ? Answer = label.
Solution: 2
(2: 0.118 S/m, 1: 0.241 S/m)

###

- Assay Comment: mn = molality of the nth substance listed, in mol/kg
- Experimental Context: 308.15 K; 101 kPa; Liquid; Alternating current cell with electrodes; m1 = 0.001
Readout Name: electrical conductivity (S/m)

>  <Molecule>
[Cl-].[K+] [potassium chloride] + O

>  <Readout Name>
electrical conductivity

>  <Result Value>
0.0177

$$$$
>  <Molecule>
[Na+].[OH-] [sodium hydroxide] + O

>  <Readout Name>
electrical conductivity

>  <Result Value>
0.0283

$$$$

1. O=C([O-])O.[K+] [potassium bicarbonate] + O
2. O=S(=O)([O-])[O-].[Na+].[Na+] [sodium sulfate] + O
Problem: Which of these two has the smaller recorded electrical conductivity: 1 or 2 ? Answer = label.
Solution: 1
(1: 0.0142 S/m, 2: 0.0292 S/m)

###

- Assay Comment: mn = molality of the nth substance listed, in mol/kg
- Experimental Context: 278.15 K; 101 kPa; Liquid; Alternating current cell with electrodes; m1 = 0.01
Readout Name: electrical conductivity (S/m)

Solved entries (count: 2):
>  <Molecule>
O=S(=O)([O-])[O-].[Na+].[Na+] [sodium sulfate] + O

>  <Result Value>
0.13

$$$$
>  <Molecule>
[Cl-].[K+] [potassium chloride] + O

>  <Result Value>
0.0891

$$$$

P. [Na+].[OH-] [sodium hydroxide] + O
Q. [Cl-].[Na+] [sodium chloride] + O
Problem: Two entries are listed, P and Q . Which one carries the higher electrical conductivity? Answer = label.
Solution: P

###

- Assay Comment: mn = molality of the nth substance listed, in mol/kg
- Experimental Context: 343.15 K; 101 kPa; Liquid; Alternating current cell with electrodes; m1 = 0.001
Readout Name: electrical conductivity (S/m)

>  <Molecule>
O=C([O-])O.[K+] [potassium bicarbonate] + O

>  <Result Value>
0.024

$$$$
>  <Molecule>
O=S(=O)([O-])[O-].[Na+].[Na+] [sodium sulfate] + O

>  <Result Value>
0.0502

$$$$

I. [Na+].[OH-] [sodium hydroxide] + O
II. [Cl-].[K+] [potassium chloride] + O
Problem: Which of these two has the smaller recorded electrical conductivity: I or II ? Answer = label.
Solution: II

###

- Assay Comment: mn = molality of the nth substance listed, in mol/kg
- Experimental Context: 363.15 K; 101 kPa; Liquid; Alternating current cell with electrodes; m1 = 0.01
Readout Name: electrical conductivity (S/m)

>  <Molecule>
[Cl-].[Na+] [sodium chloride] + O

>  <electrical conductivity, S/m>
0.303

$$$$
>  <Molecule>
[Na+].[OH-] [sodium hydroxide] + O

>  <electrical conductivity, S/m>
0.511

$$$$

A. O=S(=O)([O-])[O-].[Na+].[Na+] [sodium sulfate] + O
B. [Cl-].[K+] [potassium chloride] + O
Problem: Two entries are listed, A and B . Which one carries the higher electrical conductivity? Answer = label.
Solution: A
